Assay: Ocular pharmacokinetics of Comp-02 after topical administration (instillation) in rabbit
Type: in vivo, pigmented HY79b rabbits
Conditions: male, pigmented HY79b, topical or ocular, 50 μl of 1 mg/mL in both eyes, choroid, topical
Reported metric: Tmax
Provide a numeric answer, followed by its unit.

Recorded Tmax (compound CNC(=O)C(=O)NCCCC/C=C\CCCCCCCOCC(=O)O [Comp-02] ): 1 h

* * *

Assay: Ocular pharmacokinetics of Comp-02 after topical administration (instillation) in rabbit
Assay type: in vivo, pigmented HY79b rabbits
Settings: male, pigmented HY79b, topical or ocular, 50 μl of 1 mg/mL in both eyes, plasma, topical, calculated from the Tmax value
Description: Study design: To gain insight into the distribution behaviour of synthetic 17,18-EEQ-agonists, ocular pharmacokinetic studies were performed in pigmented HY79b rabbits. […] Content of Comp-02 was determined in ocular samples and plasma following an established RRLCMS/MS method. The results are presented in Tables 5-7 and are expressed as mean values for the different pharmacokinetic parameters. […] Apparent Cmax and Tmax, T½, AUC1-48 h were calculated by Excel® software. […]
Reported metric: half-life (h)
Answer with a number only, understood to be in h.

Recorded half-life (compound CNC(=O)C(=O)NCCCC/C=C\CCCCCCCOCC(=O)O ): 5.4
